// data source = patent US4603125A

test: Rm from reversed phase partition chromatography (lipophilic-hydrophilic balance)
Property measured: chromatographic logP

>>> numeric_result("CNC(=O)c1cccc2c(Nc3ccc(NS(C)(=O)=O)cc3NC)c3cccc(C)c3nc12")
0.23
>>> numeric_result("CNc1cc(NS(C)(=O)=O)ccc1Nc1c2ccc(Cl)cc2nc2c(C)cccc12")
0.4
>>> numeric_result("COC(=O)Nc1ccc(Nc2c3ccccc3nc3ccccc23)c(N(C)C)c1")
0.56
>>> numeric_result("CNc1cc(NS(C)(=O)=O)ccc1Nc1c2cccc(C)c2nc2c(C)cccc12")
0.16
>>> numeric_result("CNc1cc(NC(=O)OC)ccc1Nc1c2ccccc2nc2ccccc12")
0.51
>>> numeric_result("CNc1cc(NS(=O)(=O)c2ccc(N)cc2)ccc1Nc1c2ccccc2nc2ccccc12")
0.03
>>> numeric_result("CNc1cc(NS(C)(=O)=O)ccc1Nc1c2ccccc2nc2cc(I)ccc12")
0.35
>>> numeric_result("O=S(=O)(Nc1ccc(Nc2c3ccccc3nc3ccccc23)c(NCCO)c1)c1ccccc1")
0.35

(P) CNc1cc(NS(C)(=O)=O)ccc1Nc1c2ccccc2nc2c(OC)cccc12
(Q) CNc1cc(NC(=O)OC)ccc1Nc1c2ccccc2nc2cc(Br)ccc12
## Input Hi there! Just curious which has the higher chromatographic logP between P and Q . Answer format: the label of the selected item.
## Output Q

(1) Cc1cccc2c(Nc3ccc(NS(C)(=O)=O)cc3NCCO)c3ccccc3nc12
(2) CNc1cc(NS(C)(=O)=O)ccc1Nc1c2ccc(OC)cc2nc2c(C)cccc12
(3) CNc1cc(NC(=O)OC)ccc1Nc1c2ccc(Cl)cc2nc2c(C)cccc12
## Input Hey, can you sort those compounds up there by chromatographic logP, smallest first? Please respond with the labels ordered as the question requires.
## Output 1, 2, 3
(1: 0.02, 2: 0.31, 3: 0.67)
